The following compounds are listed with their measured AC50 values.
# system_under_test: Gamma-aminobutyric acid receptor subunit alpha-1 (Rattus norvegicus, UniProt P62813); note: assay procedure not described here
# Sequence (P62813 whole entry): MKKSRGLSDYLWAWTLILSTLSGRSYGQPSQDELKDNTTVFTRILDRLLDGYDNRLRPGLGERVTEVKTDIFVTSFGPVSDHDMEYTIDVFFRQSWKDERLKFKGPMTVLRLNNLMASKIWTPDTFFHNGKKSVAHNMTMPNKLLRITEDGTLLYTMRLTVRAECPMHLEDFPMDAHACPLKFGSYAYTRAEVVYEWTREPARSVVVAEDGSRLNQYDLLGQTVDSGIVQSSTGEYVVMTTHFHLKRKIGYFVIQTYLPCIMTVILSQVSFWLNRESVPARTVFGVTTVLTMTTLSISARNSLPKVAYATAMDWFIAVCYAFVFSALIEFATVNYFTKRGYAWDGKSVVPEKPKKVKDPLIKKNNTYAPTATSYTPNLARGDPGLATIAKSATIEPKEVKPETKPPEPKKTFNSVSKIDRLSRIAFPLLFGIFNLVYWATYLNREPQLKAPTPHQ
# Format: functional

Example compounds with recorded AC50:
{"columns": ["compound", "system_under_test", "AC50"],
 "data": [
  ["CCOC(=O)Nc1ccc2c(c1)N(C(=O)CCN1CCOCC1)c1ccccc1S2", "Gamma-aminobutyric acid receptor subunit alpha-1 (Rattus norvegicus, UniProt P62813)", "> 30 µM"],
  ["CC(C)CC(N(C)C)C1(c2ccc(Cl)cc2)CCC1 (configuration not stated)", "Gamma-aminobutyric acid receptor subunit alpha-1 (Rattus norvegicus, UniProt P62813)", "> 10 µM"],
  ["CN1C[C@H](C(=O)N[C@]2(C)O[C@@]3(O)[C@@H]4CCCN4C(=O)[C@H](Cc4ccccc4)N3C2=O)C[C@@H]2c3cccc4[nH]cc(c34)C[C@H]21 [DIHYDROERGOTAMINE]", "Gamma-aminobutyric acid receptor subunit alpha-1 (Rattus norvegicus, UniProt P62813)", "> 10 µM"],
  ["C#C[C@]1(O)CC[C@H]2[C@@H]3CCc4cc(OC)ccc4[C@H]3CC[C@@]21C", "Gamma-aminobutyric acid receptor subunit alpha-1 (Rattus norvegicus, UniProt P62813)", "> 10 µM"],
  ["CN1[C@@H]2CC[C@H]1C[C@@H](OC(=O)c1c[nH]c3ccccc13)C2", "Gamma-aminobutyric acid receptor subunit alpha-1 (Rattus norvegicus, UniProt P62813)", "0.5 µM"]
]}

Measured AC50 of Clc1ccc2c(c1)C(N1CCNCC1)=Nc1ccccc1O2 : > 10 µM

Entry CC[N+]1(C)CCCC(OC(=O)C(O)(c2ccccc2)c2ccccc2)C1 (configuration not stated) [PIPENZOLATE] , AC50 reported as > 30 µM

Quick note, AC50 for C[C@H]1Oc2cc(cnc2N)-c2c(nn(C)c2C#N)CN(C)C(=O)c2ccc(F)cc21 landed at > 30 µM

Reported AC50 ( CCOC(=O)NNc1ccc(N(CC)CC(C)O)nn1 (configuration not stated) ) = > 30 µM

Entry C=C(C)[C@@H]1CCC(C)=C[C@H]1c1c(O)cc(CCCCC)cc1O ; AC50 = > 30 µM

Kindly note the recorded AC50 for CCN(CC)C(=O)C1CN2CCc3cc(OC)c(OC)cc3C2CC1OC(C)=O (configuration not stated) [BENZQUINAMIDE] , which is > 30 µM

What the record says about C#Cc1cccc(Nc2ncnc3cc(OCCOC)c(OCCOC)cc23)c1 : AC50 is > 30 µM

Form field AC50, entry CCCNC(C)C(=O)Nc1ccccc1C (configuration not stated) : > 30 µM

AC50 for Cc1ccc2c(-c3ccccc3)nc(=O)n(C(C)C)c2c1 is > 30 µM

Lab book: AC50 of Nc1nc(F)nc2c1ncn2[C@@H]1O[C@H](COP(=O)(O)O)[C@@H](O)[C@@H]1O [FLUDARABINE PHOSPHATE] noted as > 30 µM

According to the records, this compound CC1(C)C(/C=C/C=C/C=C/C=C2\N(CCCCS(=O)(=O)O)c3ccc4ccccc4c3C2(C)C)=[N+](CCCCS(=O)(=O)[O-])c2ccc3ccccc3c21 [INDOCYANINE GREEN ACID FORM] displays AC50 of 18 µM

Kindly note the recorded AC50 for CC(=O)/N=c1/sc(S(N)(=O)=O)nn1C [METHAZOLAMIDE] , which is > 10 µM

---

# system_under_test: Estrogen receptor (Homo sapiens, UniProt P03372); note: assay procedure not described here
# Sequence (P03372 whole entry): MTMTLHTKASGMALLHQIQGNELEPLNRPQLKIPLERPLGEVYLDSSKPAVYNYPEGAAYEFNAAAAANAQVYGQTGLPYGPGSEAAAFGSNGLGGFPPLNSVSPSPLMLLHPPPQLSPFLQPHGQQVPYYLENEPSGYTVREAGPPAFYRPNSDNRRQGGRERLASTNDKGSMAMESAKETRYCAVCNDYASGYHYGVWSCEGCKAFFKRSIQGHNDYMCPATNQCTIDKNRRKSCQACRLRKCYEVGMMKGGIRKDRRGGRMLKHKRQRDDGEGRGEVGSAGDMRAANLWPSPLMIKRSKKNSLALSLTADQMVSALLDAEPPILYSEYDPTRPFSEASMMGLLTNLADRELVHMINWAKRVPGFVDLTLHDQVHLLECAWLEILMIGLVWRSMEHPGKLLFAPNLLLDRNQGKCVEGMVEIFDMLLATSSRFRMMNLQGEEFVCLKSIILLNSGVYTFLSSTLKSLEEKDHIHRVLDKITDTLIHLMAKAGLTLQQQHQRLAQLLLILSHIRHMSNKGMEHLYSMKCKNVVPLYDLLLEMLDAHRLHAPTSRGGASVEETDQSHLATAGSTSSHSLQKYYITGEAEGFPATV
endpoint_name: AC50

For orientation, consider the following solved cases.
{"columns": ["compound", "AC50"],
 "data": [
  ["CCCN(CC)C(CC)C(=O)Nc1c(C)cccc1C (configuration not stated) [ETIDOCAINE]", "> 30 µM"],
  ["COC(=O)N[C@@H](C)CNc1nccc(-c2cn(C(C)C)nc2-c2cc(Cl)cc(NS(C)(=O)=O)c2F)n1 [ENCORAFENIB]", "> 30 µM"],
  ["CCCNC(C)C(=O)Nc1ccccc1C (configuration not stated) [PRILOCAINE]", "> 30 µM"]
]}

Documented AC50 of O=C(O)c1ccccc1OP(=O)(O)O [FOSFOSAL] : > 30 µM

Please fill in: AC50 reported for CCCCCCOC(=O)CCC(=O)CN [HEXAMINOLEVULINATE] = > 30 µM

// sample CC[C@@H](CO)NC(=O)[C@@H]1C=C2c3cccc4[nH]cc(c34)C[C@H]2N(C)C1 [METHYLERGONOVINE] , its AC50 was > 30 µM

Per the records, this compound ( CC(=O)/N=c1/sc(S(N)(=O)=O)nn1C [METHAZOLAMIDE] ) has AC50 equal to > 10 µM

Item: O=C(Nc1c(Cl)cncc1Cl)c1ccc(OC(F)F)c(OCC2CC2)c1 [ROFLUMILAST] | AC50: > 30 µM

Value of measured AC50 for the entry CS(=O)(=O)OCCCCOS(C)(=O)=O [BUSULFAN] : > 30 µM

For record COc1cc2c(Nc3ccc(Br)cc3F)ncnc2cc1OCC1CCN(C)CC1 [VANDETANIB] the listed AC50 is > 30 µM

Given item Nc1ccn([C@@H]2O[C@H](CO)[C@@H](O)C2(F)F)c(=O)n1 [GEMCITABINE] , the value recorded as its AC50 is > 30 µM

Value of measured AC50 for the entry CCCCC[C@H](O)/C=C/[C@H]1[C@H](O)CC(=O)[C@@H]1C/C=C\CCCC(=O)O [DINOPROSTONE] : 23 µM

---

AC50 for assorted molecules
# system_under_test: Melanocortin receptor 3 (Homo sapiens); note: assay procedure not described here
# Sequence (P41968 whole entry): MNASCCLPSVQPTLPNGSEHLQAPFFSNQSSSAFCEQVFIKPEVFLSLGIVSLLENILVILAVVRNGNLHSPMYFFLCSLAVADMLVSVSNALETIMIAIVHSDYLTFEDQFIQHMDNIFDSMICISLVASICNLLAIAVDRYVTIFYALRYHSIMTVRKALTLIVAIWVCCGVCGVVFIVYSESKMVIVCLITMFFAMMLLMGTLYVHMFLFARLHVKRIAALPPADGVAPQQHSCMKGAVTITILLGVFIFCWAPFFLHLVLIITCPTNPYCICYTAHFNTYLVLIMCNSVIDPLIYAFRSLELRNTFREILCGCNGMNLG

Please review the entries below; each comes with its answer.
{"columns": ["molecule", "AC50"],
 "data": [
  ["[H]/N=C(\\N/C(=N/[H])NCCCCCCNC(=N)NC(=N)Nc1ccc(Cl)cc1)Nc1ccc(Cl)cc1 [CHLORHEXIDINE]", "0.49 µM"],
  ["N[C@H](Cc1cc(I)c(Oc2cc(I)c(O)c(I)c2)c(I)c1)C(=O)O [DEXTROTHYROXINE]", "> 30 µM"],
  ["CCCCNc1ccc(C(=O)OCCN(C)C)cc1 [TETRACAINE]", "> 30 µM"],
  ["CCCC(C)(COC(N)=O)COC(=O)NC(C)C (configuration not stated) [CARISOPRODOL]", "> 30 µM"],
  ["C=CC1=C(C(=O)O)N2C(=O)[C@@H](NC(=O)/C(=N\\OCC(=O)O)c3csc(N)n3)[C@H]2SC1 [CEFIXIME]", "> 30 µM"],
  ["C=C[C@@]1(C)CC(=O)[C@]2(O)[C@@]3(C)[C@@H](O)CCC(C)(C)[C@@H]3[C@H](OC(=O)CCN(C)C)[C@H](OC(C)=O)[C@@]2(C)O1", "> 30 µM"]
]}

Value (AC50, Melanocortin receptor 3 (Homo sapiens)) for record CCCC[C@H](C)C[C@H](O)/C=C/[C@H]1[C@H](O)CC(=O)[C@@H]1CCCC/C=C/C(=O)O [LIMAPROST] = > 30 µM

Case CC(=O)Nc1c(I)c(C(=O)N[C@H]2C(O)O[C@H](CO)[C@@H](O)[C@@H]2O)c(I)c(N(C)C(C)=O)c1I (some centres not stated) [METRIZAMIDE] , Melanocortin receptor 3 (Homo sapiens), AC50 recorded as > 10 µM

Readout AC50 for CN(C)C(=O)Oc1cc(OC(=O)N(C)C)cc(C(O)CNC(C)(C)C)c1 (configuration not stated) [BAMBUTEROL] , test system Melanocortin receptor 3 (Homo sapiens), was > 30 µM
